assay: soluble on expression in E. coli; label from the status in PepcDB or PDB records
Assay readout: soluble on expression in E. coli

record_sequence=MTGMRKTLKATLAEARAQVEAALKEEGFGILTEIDVAATLKAKLGLEKPPYLILGACNPNLAARALEALPEIGLLLPCNVVLREAEEGVEVLIQDPKEMFRVLPEATQRALAPVAEEARTRLSRALSRL observed_measurement=soluble
record_sequence=MSAAPLVGYSSSGSEDESEDGMRTRPGDGSHRRGQSPLPRQRFPVPDSVLNMFPGTEEGPEDDSTKHGGRVRTFPHERGNWATHVYVPYEAKEEFLDLLDVLLPHAQTYVPRLVRMKVFHLSLSQSVVLRHHWILPFVQALKARMTSFHRFFFTANQVKIYTNQEKTRTFIGLEVTSGHAQFLDLVSEVDRVMEEFNLTTFYQDPSFHLSLAWCVGDARLQLEGQCLQELQAIVDGFEDAEVLLRVHTEQVRCKSGNKFFSMPLK observed_measurement=soluble

###

assay: soluble on expression in E. coli; label from the status in PepcDB or PDB records
Assay readout: soluble on expression in E. coli

record_sequence=MGSDKIHHHHHHMTIYTLSHGSLKLDVSDQGGVIEGFWRDTTPLLRPGKKSGVATDASCFPLVPFANRVSGNRFVWQGREYQLQPNVEWDAHYLHGDGWLGEWQCVSHSDDSLCLVYEHRSGVYHYRVSQAFHLTADTLTVTLSVTNQGAETLPFGTGWHPYFPLSPQTRIQAQASGYWLEREQWLAGEFCEQLPQELDFNQPAPLPRQWVNNGFAGWNGQARIEQPQEGYAIIMETTPPAPCYFIFVSDPAFDKGYAFDFFCLEPMSHAPDDHHRPEGGDLIALAPGESTTSEMSLRVEWL observed_measurement="not soluble"
record_sequence=MGSDKIHHHHHHMKFTDIEYFDKLSELESFSKTAIFFNVSQPTISFAIQRLENEMKKTLINRNQSHGEISLTEAGKVFEKHAKKILQEVVAAHEEIDRMNQPTIEFGLPQIIGNYYLPKLVKHFVGNPFFQNVATNEAGSNLLLGALKNRRLDLAIISSVEPVKIEGLETIEIDRKKYSIVVNKDNPLAKQKKVSFEDLADEKFVSLKEGNVHPIAFRKLEETYNVYPKIIYETPDINILKKMIAEKTGIGFIVEIAVEKQDNLATLELSNEKVPEFIISFVYKKDLQIPGIKRIVEELRNNSVFDQDR observed_measurement="not soluble"

###

assay: soluble on expression in E. coli; label from the status in PepcDB or PDB records
Assay readout: soluble on expression in E. coli

record_sequence=MGSDKIHHHHHHMKKIRLGIYIEDSEYGDRLTCYFMNHYKVQLEIHMYTMKEQLEHLEGEIDIMLSSELDQWNNKYIPLIQIVEETPIESEEGIYFVEKYQEVNRIVEEILKHVGGEVRDLKSEGSLIGQTRLISVYSLADNQYQMPFAMTLSSILSENEKVLLMDFQENSGLSRMLEQSVEHNLDELLVMAESGRYSTNRINSCIGRKHKLDYVYPIENTECLCEINTVICNNLLQMLGKEMHYDCIVLNMGTRFKGFFDILDRCSDIYLVQKKGGISQWREYEFTEELMERGLSNVVERIKLIEPPVITTPVSTCDKLVELWKWNEFGDVIRNMTRGISCAG assay_readout="soluble on expression in E. coli" observed_measurement="not soluble"
record_sequence=MGSDKIHHHHHHMAETAPAPYFSEIARGPDQVEAHWLTTQDGQRIRAGLWRSHGPSAGTILLFPGRTEYIEKYGPLAIDLTDRGFDVLTVDWRGQGLADRSLSDGRLGHVAEFGAFQLDVAALVAHAEALNLPRPWYLLGHSMGGAIGLRALHEGLPVAACAFTAPMWAIRIPFALRPAARLLARFGTALGVSEKLVPTTTIEQYVQVTPFEGNTLTNDPEMYAFLQMQMTQHPELALGGPTVQWLSQAMLECADLRARPSPDVPCVTFLGENEQIVATEAIHDRMARWPSGKLEMIPDAQHEILMEIPQTRRQTCAILTAHFKKHV assay_readout="soluble on expression in E. coli" observed_measurement="not soluble"

###

experiment: soluble on expression in E. coli; label from the status in PepcDB or PDB records
Assay readout: soluble on expression in E. coli

record_sequence=SPSETLWEIAKAEVEKRRSHGSEGDGAEIGEKSVFFIGSKNGGKTTIILRCLDRDESAKPTLALEYTYGRKTKGHNTPKDIAHFWELGGGTSLLDLISIPITVDTLRTFSIVLVLDLSKPNDLWSTMENLLQATKSHVDKVIMKLGKTSSKASAEMRQRMWSVVQKDHPDRELIDPFPIPLVIIGSKYDIFQDFDPEKRKVICKTLRFVAHYYGASLMFTSKSEALLLKIRGVINQLAFGIDKSKSICVDQNKPLFITAGLDSLCQIGSPPVPDSDIGKLQAHSPMELWKKVYDKLFPPKSTGTLKAVQDPARDPQYAESEVDEMRVQKDQELEHYKRSSSKTWKQIELDS assay_readout="soluble on expression in E. coli" observed_measurement=soluble
record_sequence=MEDLTNVSSLLNMERARDKANEEGLALLQEEIDKMVETTELMTGNIQSLKNKIQILASEVEEEEERVKQMHQINSSGVLSLPELSQKTLKAPTLQKEILALIPNQNALLKDLDILHNSSQMKSMSTFIEEAYKKLDAS assay_readout="soluble on expression in E. coli" observed_measurement=soluble

###

assay: soluble on expression in E. coli; label from the status in PepcDB or PDB records
Assay readout: soluble on expression in E. coli

# annotated cases, reported soluble on expression in E. coli shown
record_sequence=MDYTIVVSATASDAAPLKFLAPYSGCAIGEHFLDNGKHALIIFDDLSKKAANCHVVCRTDEIELDILNRMEEDIKLHPLTWYDIWSSLETKIKVVRARIPKSLSRR observed_measurement="not soluble"
record_sequence=MQIKLANPRGFCAGVDRAIEIVNRALEVFGPPIYVRHEVVHNKFVVEDLRSRGAIFVEELEQVPDDVIVIFSAHGVSQAVRTEAAGRGLKVFDATCPLVTKVHIEVARYSRDGRECILIGHAGHPEVEGTMGQYDAVNGGAIYLVEDEADVASLEVRNPESLAFVTQTTLSMDDTSRVIDALRKRFPAIGGPRKDDICYATQNRQDAVKQLADECDVVLVVGSPNSSNSNRLRELAERMATPAYLIDGAEDMQKGWFDGVERIGITAGASAPEVLVRGVIQQLQAWGATGADELAGREENITFSMPKELRVKSLLLEHHHHHH observed_measurement="not soluble"
record_sequence=MNHQSYSAPTQAVAANTHLIYSTEQGGAVSPTPQKSIGSIADYDPMNGQWGTAAAQPRNSEKLGYLKAQVDKGPARFCADFAGAPPPSSNSISSTSPHSTLSSPQSTISPTGKAGFAVKAIYDYAAADKDEISFLEGDIIVNCEKIDDGWMTGTVQRTLQWGMLPANYVQPHKLPTGLHRLS observed_measurement="not soluble"
record_sequence=MIELHQKRLSAPKTYKIPRKVSKWVVKPSPGPHNKEAIPLLVLVRDFLELADTGREARRIISAGEILVDGVVRKDYKFPVGLFDVVTIPKLEKSYRILFDEKGRYIPKEVEDADLKLYKITNKTLVRGGKVQLNLFDGTNILGSNDYKTKDSILLRIPEKEVVDHLKFEEGALVMITGGTHAGEIGRIKSYKIVRSSAPNLVTVEGEERDITTIEDYVFVVGKKDSDKPVIDLGVLEHHHHHH observed_measurement=soluble
record_sequence=MGDSILSQAEIDALLNGDSDTKDEPTPGIASDSDIRPYDPNTQRRVVRERLQALEIINERFARQFRMGLFNLLRRSPDITVGAIRIQPYHEFARNLPVPTNLNLIHLKPLRGTGLVVFSPSLVFIAVDNLFGGDGRFPTKVEGREFTHTEQRVINRMLKLALEGYSDAWKAINPLEVEYVRSEMQVKFTNITTSPNDIVVNTPFHVEIGNLTGEFNICLPFSMIEPLRELLVNPPLENSRHEDQNWRDNLVRQVQHSELELVANFADIPLRLSQILKLKPGDVLPIEKPDRIIAHVDGVPVLTSQYGTVNGQYALRVEHLINPILNSLNEEQPK observed_measurement="not soluble"

Value of soluble on expression in E. coli reported for the sequence SKGIKSEEVKINNIAIEINKATKRDPGNCNLDNHIKPSPDSSLDNQMKLSCESAPDQNFSICSASEVETNPLENTAAASTLLSQAKIDEDRTFPGSAPNQQHSVLSDEASINRKNRDVPPNHSQLKHDSHLEITIPKSLKLKDSEKVDEKQLVIDAGHKRFGAVSCNICGMLYTASNPEDETQHLLFHNQFISAVKYVVLLINHHECGSEEEFITSLFLSMSNFRYTQRSLLPY is soluble

###

test: soluble on expression in E. coli; label from the status in PepcDB or PDB records
Assay readout: soluble on expression in E. coli

record_sequence=HMPSVIVVGGQWGDEGKGSIVAYLSLHDEPEIIARGGVGTNAGHSVVINGKKYAVRQIPTGFMQTKARLLIGAGVLVDPEVFFHELEQLKDFNVKDRVGIDYRCAIIEEKHKQLDRTNGYLHGKIGTTGSGCGPANADRVMRKAKQAKDVKELEPYLTDVAQEINDALDEGSLVLVEGTQGFGLSLYYGTYPYVTSKDVTASSVAADVGIGPTRVDEVIVVFKSFPTRVGAGPFPTEMPMEEADRLGLVEYGTVTGRRRRVGWFDFEMARYSARINGATMLAVTMLDKYDKEAFGVTDYDKLPRKAKEFIEEIEERVGVPVGLIKTGPELEHIIDRRDTI assay_readout="soluble on expression in E. coli" observed_measurement=soluble
record_sequence=MSLETKTPNDAKNQVQTHERMKTSSEHVTPLDFNYPIHIVQAPQNHHVVGILTPRIQVSDNLKPYIDKFQDALINQIQTIFEKRGYQVLRFQDEKALNAQDKRKIFSVLDLKGWVGILEDLKMNLKDPNNPNLDTLVDQSSGSVWFNFYEPESNRVVHDFAVEVGTFQAMTYTYKHNNSGGLNSSNSIIHEYLEKNKEDAIHKILNRMYAVVMKKAVTELTKENIDKYREAIDRMKGFKSSMPQKKEGHHHHHH assay_readout="soluble on expression in E. coli" observed_measurement=soluble
record_sequence=MSIEWYAVHTLVGQEEKAKANLEKRIKAFGLQDKIFQVLIPTEEVVELREGGKKEVVRKKLFPGYLFIQMDLGDEEEPNEAWEVVRGTPGITGFVGAGMRPVPLSPDEVRHILEVSGLLGKKEAPKAQVAFREGDQVRVVSGPFADFTGTVTEINPERGKVKVMVTIFGRETPVELDFSQVVKA assay_readout="soluble on expression in E. coli" observed_measurement=soluble
